Catalogue of potency estimated from few doses readings, one per entry.
Test system: FLT3
Set-up: species or system human, MV4-11 + K-562 + COLO205 + SK-N-BE2 + OVCAR-8
test-parameters: read-out: apparent Kd; compound concentrations:100 nM and 1000 nM (sheet 'Samples'); n = 1
Number first, unit second: that is the form wanted.

CS(=O)(=O)CCNCc1ccc(-c2ccc3ncnc(Nc4ccc(OCc5cccc(C(F)(F)F)c5)cc4)c3c2)o1.Cl [GW567808A] :: 1430 nM
COC(=O)Nc1nc2cc(Oc3ccc(NC(=O)Nc4cc(C(F)(F)F)ccc4F)cn3)ccc2[nH]1.COC(=O)Nc1nc2cc(Oc3ccc(NC(=O)Nc4cc(C(F)(F)F)ccc4F)cn3)ccc2[nH]1.Cl.Cl [GW681170A] :: 1240 nM

We now examine a further molecule.
# potency estimated from few doses lookup, item Nc1nc(N)c2nc(-c3ccccc3)[nH]c2n1 [SKF-12778]
1070 nM

---

System: TTK
Set-up: species or system human, MV4-11 + K-562 + COLO205 + SK-N-BE2 + OVCAR-8
test-parameters: read-out: apparent Kd; compound concentrations:100 nM and 1000 nM (sheet 'Samples'); n = 1
measured-property: potency estimated from few doses (µM)
Please respond with the number in µM and leave the unit unwritten.

# example entries with known answers
CNC(=O)c1ccccc1Nc1nc(Nc2ccc(N3CCOCC3)cc2)ncc1Cl.Cl [GSK1576028A] :: 2.1
CN(C)CC(O)COc1ccc(Nc2nccc(-c3cnn4nc(N5CCOCC5)ccc34)n2)cc1 (centres unmarked) [GW767488X] :: 2.04

# potency estimated from few doses lookup, item NS(=O)(=O)c1ccc(N/N=C2\C(=O)Nc3ccc(C(=O)NCc4ccncc4)cc32)cc1 [GSK300657X]
2.1

# potency estimated from few doses lookup, item CN(C)CCNC(=O)Nc1ccc(N(C)c2ccnc(Nc3ccc(CS(C)(=O)=O)cc3)n2)cc1.Cl [GW830900A]
2.15

# potency estimated from few doses lookup, item COc1cc(N2CCN(C(C)C)CC2)ccc1Nc1nc(Nc2ccc(F)cc2C(=O)NC[C@@H](O)CO)c2cc[nH]c2n1 [GSK1392956A]
0.053

---

System: CSNK1E
Set-up: species or system human, MV4-11 + K-562 + COLO205 + SK-N-BE2 + OVCAR-8
test-parameters: compound concentrations:0.3nM, 1nM, 3nM, 10nM, 30nM, 100nM, 300nM, 1000nM,R2:0.89444069129231096,slope:0.86279178326481998,EC50 Standard Error, by the legend:Standard error of the EC50 estimation as provided by the drc package.
measured-property: EC50 (µM)
Please respond with the number in µM and leave the unit unwritten.

# EC50 lookup, item Cl.NCc1ccc(-c2nc(-c3ccc(Cl)c(O)c3)c(-c3ccncc3)[nH]2)cc1
0.642

---

System: PRKCD
Parameters: species or system human, MV4-11 + K-562 + COLO205 + SK-N-BE2 + OVCAR-8
test-parameters: compound concentrations:0.3nM, 1nM, 3nM, 10nM, 30nM, 100nM, 300nM, 1000nM,R2:0.97536342523711195,slope:1.1087330186118201,EC50 Standard Error, by the legend:Standard error of the EC50 estimation as provided by the drc package.
measured-property: pEC50
Entry type: numeric. Quantity: pEC50, the -log10 of concentration in molar units.

# pEC50 lookup, item CCn1c(-c2nonc2N)nc2c(C#CC(C)(C)O)nc(OCCN)cc21.CCn1c(-c2nonc2N)nc2c(C#CC(C)(C)O)nc(OCCN)cc21.Cl.Cl [GSK902056A]
6.91
